Subject Of Test: T1, B-cat-Halo (UniProt P35222 1-781)
T1 sequence (looked up): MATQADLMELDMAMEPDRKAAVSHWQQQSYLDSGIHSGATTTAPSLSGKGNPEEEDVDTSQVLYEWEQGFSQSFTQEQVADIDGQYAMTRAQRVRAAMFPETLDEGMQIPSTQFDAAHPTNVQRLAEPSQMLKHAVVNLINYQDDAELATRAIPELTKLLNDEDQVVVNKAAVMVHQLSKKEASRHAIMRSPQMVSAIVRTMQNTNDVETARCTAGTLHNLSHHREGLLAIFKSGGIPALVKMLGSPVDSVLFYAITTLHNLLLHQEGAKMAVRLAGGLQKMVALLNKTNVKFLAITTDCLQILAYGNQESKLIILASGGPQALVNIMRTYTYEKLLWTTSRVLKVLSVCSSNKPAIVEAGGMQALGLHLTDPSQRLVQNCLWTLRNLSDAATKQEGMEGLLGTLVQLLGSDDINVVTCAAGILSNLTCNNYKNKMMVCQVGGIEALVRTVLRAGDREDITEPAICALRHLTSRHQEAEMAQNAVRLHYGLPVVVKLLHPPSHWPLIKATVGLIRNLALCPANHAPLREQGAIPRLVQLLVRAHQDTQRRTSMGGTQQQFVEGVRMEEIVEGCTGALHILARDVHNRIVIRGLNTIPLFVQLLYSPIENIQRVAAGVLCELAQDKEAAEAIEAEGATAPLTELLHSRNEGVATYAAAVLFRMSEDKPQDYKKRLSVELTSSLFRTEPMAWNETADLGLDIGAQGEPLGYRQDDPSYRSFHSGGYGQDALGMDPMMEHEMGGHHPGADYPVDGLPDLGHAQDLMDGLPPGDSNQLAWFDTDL
Assay Procedure: cell-based or functional assay
Starred links: 1 amine or outer side, 2 acyl side, 3 side chain; linkers in the order of their positions; H or OH if unused. Positions of bridges follow the written chain, without caps; N, C: chain ends. Non-standard residues stand in square brackets, D forms with d. Primed or numbered codes have the meaning given here. PyrS2″ = (S)-3-amino-1-((pent-4-en-1-yloxy)carbonyl)pyrrolidine-3-carboxylic acid (stapling residue), C=CCCCOC(=O)N1CC[C@@](N[*:1])(C(=O)[*:2])C1; B5(4) = 2,2-bis(4-pentenyl)glycine = 2-amino-2-(pent-4-en-1-yl)hept-6-enoic acid (stitching residue), C=CCCCC(CCCC=C)(N[*:1])C(=O)[*:2]; PyrS2 = (S)-3-amino-1-((pent-4-en-1-yloxy)carbonyl)pyrrolidine-3-carboxylic acid, C=CCCCOC(=O)N1CC[C@@](N[*:1])(C(=O)[*:2])C1; 3Br4FF = (S)-2-amino-3-(3-bromo-4-fluorophenyl)propanoic acid, O=C([C@H](Cc1ccc(F)c(Br)c1)N[*:1])[*:2]; B5(3) = 2,2-bis(4-pentenyl)glycine (stitching residue), C=CCCCC(CCCC=C)(N[*:1])C(=O)[*:2]; Phe(3-COOH) = N[C@@H](Cc1cccc(C(=O)O)c1)C(=O)O; Bta = N[C@@H](Cc1csc2ccccc12)C(=O)O; αAllylPro = C=CC[C@@]1(C(=O)O)CCCN1; tBuAla = CC(C)(C)C[C@H](N)C(=O)O; 3Thi = N[C@@H](Cc1ccsc1)C(=O)O; Aib = CC(C)(N)C(=O)O
Property Name: NanoBRET Abs IC50 (µM)
Please reply with the bare figure in µM and do not write the unit itself.

Examples with their reported NanoBRET Abs IC50 follow.
Ac-[αAllylPro]D[tBuAla][B5(3)]D[Phe(3-COOH)]AAFL[PyrS2″][3Thi][Bta]NA[Aib]A[Aib]A[Aib]A-NH2 (staple 1-4, 4-11) [I-2273]: 6.2
Ac-[αAllylPro]D[tBuAla][B5(4)]D[Phe(3-COOH)]QAFV[PyrS2][3Thi][3Br4FF]A-NH2 (staple 1-4, 4-11) [I-2288]: 6.7

input: Requested field: NanoBRET Abs IC50. Item: Ac-[αAllylPro]D[tBuAla][B5(4)]D[Phe(3-COOH)]AAFL[PyrS2][3Thi][Bta]NALALA-NH2 (staple 1-4, 4-11; also: earlier eluting staple isomer) [I-2281]
output: 4.3
